Tested on: Amaranthus retoflexus (AMARE)
Assay: Pre-emergence biological efficacy (percentage damage)
Format: in vivo
Conditions: Amaranthus retroflexus, 312 h, dose 1,000 g/ha, evaluated after 13 days, 100=total damage, 0=no damage
Is pest or weed control at 1000 g/ha at least 60%? Then 1. If not, 0.

>>> print(df.to_string())
                                   compound  discrete_label
0  C=Cc1c(N)nc(-c2ccc(Cl)c(N(C)C)c2F)nc1C(=O)OCC               1
1  C=Cc1c(N)nc(-c2ccc(Cl)c(N(C)C)c2F)nc1C(=O)OCCOCCCC               1
2  C=Cc1c(C(=O)OC)nc(C2CC2)nc1[S+](C)[O-] (centres unmarked)               1
3  C=C(OCC)c1ccc(-c2nc(N)c(C(C)=O)c(C(=O)OC)n2)c(F)c1OC               0
4  C=Cc1c(N)nc(-c2ccc(C(F)(F)F)cc2)nc1C(=O)OC               0
5  C=Cc1c(N)nc(-c2cc(F)c(Cl)c(F)c2)nc1C(=O)OC               0
6  C=Cc1c(N)nc(-c2ccc(Cl)c(N(C)C)c2F)nc1C(=O)OCC(CC)CCCC (centres unmarked)               0

----------
Test system: Amaranthus retoflexus (AMARE)
Test: Pre-emergence biological efficacy (percentage damage)
Assay type: in vivo
Settings: Amaranthus retroflexus, 312 h, dose 1,000 g/ha, evaluated after 13 days, 100=total damage, 0=no damage
Experimental: Seeds of Alopecurus myosuroides (ALOMY), Setaria faberi (SETFA), Echinochloa crus-galli (ECHCG), Solanum nigrum (SOLNI), Amaranthus retoflexus (AMARE) and Ipomea hederaceae (IPOHE) were sown in standard soil in pots. […] After 13 days the test was evaluated (100=total damage to plant; 0=no damage to plant).
test-readout: pest or weed control at 1000 g/ha (%)

>>> df
                                   compound  result_units  recorded_value
0  COC(=O)c1nc(-c2ccc(C(F)(F)F)cc2)nc(N)c1C(C)=O             %             100
1  C=Cc1c(N)nc(-c2ccc(Cl)c(N(C)C)c2F)nc1C(=O)OC(C)C             %              40
2  C=Cc1ccc(-c2nc(N)c(C=C)c(C(=O)OC)n2)c(F)c1N(C)C             %              30
3  COC(=O)c1nc(-c2ccc(C(C)=O)c(OC)c2F)nc(N)c1C(C)=O             %               0
4  C=Cc1c(N)nc(-c2ccc(C(=O)OC)cc2)nc1C(=O)OC             %               0
5   C=Cc1c(N)nc(-c2cc(F)cc(Cl)c2)nc1C(=O)OC             %               0
6    C=Cc1c(N)nc(-c2ccc3ccccc3c2)nc1C(=O)OC             %               0
7  C=Cc1c(N)nc(-c2ccc(Cl)c(N(C)C)c2F)nc1C(=O)OC(C)c1ccccc1 (stereo not drawn)             %              40
8  C=Cc1c(N)nc(-c2cc(F)c(F)c(F)c2)nc1C(=O)OC             %               0

----------
Test system: Echinochloa crus-galli (ECHCG)
Test: Pre-emergence biological efficacy (percentage damage)
Assay type: in vivo
Conditions: Echinochloa crus-galli, 312 h, dose 1,000 g/ha, evaluated after 13 days, 100=total damage, 0=no damage
test-readout: pest or weed control at 1000 g/ha

>>> print(df.to_string())
                                    molecule                     measured_on                       test_readout  recorded_value
 0  C=Cc1c(N)nc(-c2ccc(Cl)c(N(C)C)c2F)nc1C(=O)OCC(C)C [Compound 33-326]  Echinochloa crus-galli (ECHCG)  pest or weed control at 1000 g/ha             40%
 1  COC(=O)c1nc(-c2ccc(Cl)cc2)nc(N)c1C [Compound 5-41]  Echinochloa crus-galli (ECHCG)  pest or weed control at 1000 g/ha             30%
 2  C=Cc1c(C(=O)OC)nc(C2CC2)nc1N(C)C [Compound 2-225]  Echinochloa crus-galli (ECHCG)  pest or weed control at 1000 g/ha              0%
 3  C=Cc1c(N)nc(-c2ccc(Cl)c(N(C)C)c2F)nc1C(=O)OCCOCC [Compound 33-396]  Echinochloa crus-galli (ECHCG)  pest or weed control at 1000 g/ha             90%
 4  C/C=C/c1c(N)nc(-c2ccc(C(F)(F)F)cc2)nc1C(=O)OC [Compound 31-62]  Echinochloa crus-galli (ECHCG)  pest or weed control at 1000 g/ha              0%
 5  COC(=O)c1nc(C2CC2)nc(N(C)C)c1C [Compound 2-221]  Echinochloa crus-galli (ECHCG)  pest or weed control at 1000 g/ha              0%
 6  C=CCOC(=O)c1nc(-c2ccc(Cl)c(N(C)C)c2F)nc(N)c1C=C [Compound 33-395]  Echinochloa crus-galli (ECHCG)  pest or weed control at 1000 g/ha             90%
 7  C=Cc1c(OC)nc(C2CC2)nc1C(=O)OC [Compound 2-398]  Echinochloa crus-galli (ECHCG)  pest or weed control at 1000 g/ha              0%
 8  C=Cc1c(C(=O)OC)nc(C2CC2)nc1[S+](C)[O-] (stereo not shown) [Compound 2-401]  Echinochloa crus-galli (ECHCG)  pest or weed control at 1000 g/ha              0%
 9  C=Cc1c(N)nc(-c2cc(F)c(Cl)c(F)c2)nc1C(=O)OC [Compound 30-61]  Echinochloa crus-galli (ECHCG)  pest or weed control at 1000 g/ha              0%
10  C=Cc1c(N)nc(-c2ccc(Cl)cc2)nc1C(=O)OC [Compound 5-61]  Echinochloa crus-galli (ECHCG)  pest or weed control at 1000 g/ha             60%
11  C=Cc1c(N)nc(-c2ccc(C(=O)OC)cc2)nc1C(=O)OC [Compound 69-61]  Echinochloa crus-galli (ECHCG)  pest or weed control at 1000 g/ha              0%
12  C=Cc1c(N)nc(-c2ccc(C)cc2)nc1C(=O)OC [Compound 36-61]  Echinochloa crus-galli (ECHCG)  pest or weed control at 1000 g/ha             90%
13  C=Cc1ccc(-c2nc(N)c(C=C)c(C(=O)OC)n2)c(F)c1N(C)C [Compound 64-61]  Echinochloa crus-galli (ECHCG)  pest or weed control at 1000 g/ha             10%
14  C=Cc1c(N)nc(-c2ccc(Cl)c(C(F)(F)F)c2)nc1C(=O)OC [Compound 14-61]  Echinochloa crus-galli (ECHCG)  pest or weed control at 1000 g/ha             20%
15  C=C(C)c1c(N)nc(-c2ccc(Cl)c(OC)c2F)nc1C(=O)OC [Compound 27-63]  Echinochloa crus-galli (ECHCG)  pest or weed control at 1000 g/ha             80%
16  C=Cc1c(N)nc(SC)nc1C(=O)OC [Compound 62-61]  Echinochloa crus-galli (ECHCG)  pest or weed control at 1000 g/ha              0%
17  Cc1c(Cl)nc(C2CC2)nc1OCC(=O)O [Compound 2-375]  Echinochloa crus-galli (ECHCG)  pest or weed control at 1000 g/ha              0%
18  C=Cc1c(N)nc(-c2ccc(Cl)c(N(C)C)c2F)nc1C(=O)OCCC [Compound 33-316]  Echinochloa crus-galli (ECHCG)  pest or weed control at 1000 g/ha             90%
19  COC(=O)c1nc(C2CC2)nc(N)c1C [Compound 2-41]  Echinochloa crus-galli (ECHCG)  pest or weed control at 1000 g/ha             20%
20  C=CCc1c(N)nc(-c2ccc(C(F)(F)F)cc2)nc1C(=O)OC [Compound 31-63]  Echinochloa crus-galli (ECHCG)  pest or weed control at 1000 g/ha              0%
21  C=C(OCC)c1ccc(-c2nc(N)c(C(C)=O)c(C(=O)OC)n2)c(F)c1OC [Compound 66-53]  Echinochloa crus-galli (ECHCG)  pest or weed control at 1000 g/ha              0%
22  C=Cc1c(N)nc(-c2ccc(Br)cc2)nc1C(=O)OC [Compound 6-61]  Echinochloa crus-galli (ECHCG)  pest or weed control at 1000 g/ha             50%
23  C=Cc1c(N)nc(-c2ccc(Cl)c(N(C)C)c2F)nc1C(=O)OC(C)C [Compound 33-306]  Echinochloa crus-galli (ECHCG)  pest or weed control at 1000 g/ha             20%
24  C=C(OCC)c1c(N)nc(-c2ccc(Cl)c(OC)c2F)nc1C(=O)OC [Compound 27-67]  Echinochloa crus-galli (ECHCG)  pest or weed control at 1000 g/ha             20%
25  C=C(C)c1c(N)nc(C2CC2)nc1C(=O)OC [Compound 2-64]  Echinochloa crus-galli (ECHCG)  pest or weed control at 1000 g/ha              0%
26  CCc1c(N)nc(-c2ccc(C(F)(F)F)cc2)nc1C(=O)OC [Compound 31-42]  Echinochloa crus-galli (ECHCG)  pest or weed control at 1000 g/ha              0%
27  CC(O)c1c(N)nc(-c2ccc(C(F)(F)F)cc2)nc1CO (stereo not shown) [Compound 31-372]  Echinochloa crus-galli (ECHCG)  pest or weed control at 1000 g/ha              0%
28  C=Cc1c(N)nc(-c2ccc(OC(F)(F)F)cc2)nc1C(=O)OC [Compound 47-61]  Echinochloa crus-galli (ECHCG)  pest or weed control at 1000 g/ha              0%
29  C=Cc1c(N)nc(-c2ccc(F)c(F)c2)nc1C(=O)OC [Compound 67-61]  Echinochloa crus-galli (ECHCG)  pest or weed control at 1000 g/ha             30%
30  C=Cc1c(N)nc(-c2ccc(Cl)c(N(C)C)c2F)nc1C(=O)OCC [Compound 33-101]  Echinochloa crus-galli (ECHCG)  pest or weed control at 1000 g/ha             90%
31  COC(=O)c1nc(-c2ccc(Cl)c(N(C)C)c2F)nc(N)c1C(C)=O [Compound 33-53]  Echinochloa crus-galli (ECHCG)  pest or weed control at 1000 g/ha              0%
32  C=Cc1c(N)nc(-c2ccc(Cl)c(F)c2)nc1C(=O)OC [Compound 19-61]  Echinochloa crus-galli (ECHCG)  pest or weed control at 1000 g/ha             70%
33  C=Cc1c(N)nc(-c2ccc(Cl)c(OC)c2F)nc1C(=O)O [Compound 27-21]  Echinochloa crus-galli (ECHCG)  pest or weed control at 1000 g/ha            100%
34  C=Cc1c(N)nc(-c2ccc(Cl)c(N(C)C)c2F)nc1C(=O)OC(C)c1ccccc1 (stereo not shown) [Compound 33-394]  Echinochloa crus-galli (ECHCG)  pest or weed control at 1000 g/ha             30%
35  C=Cc1c(SC)nc(C2CC2)nc1C(=O)OC [Compound 2-400]  Echinochloa crus-galli (ECHCG)  pest or weed control at 1000 g/ha              0%
36  C=Cc1c(N)nc(-c2ccc(Cl)c(OC)c2F)nc1C(=O)OC [Compound 27-61]  Echinochloa crus-galli (ECHCG)  pest or weed control at 1000 g/ha             90%
